Target: Tyrosine-protein kinase Blk (Homo sapiens)
Settings: at 1 µM
assay readout: residual activity (%)
Write down the numeric answer in % and omit the unit.

>  <smiles data>
Oc1n[nH]c2nnc(-c3c(-c4ccccc4)nn4ccccc34)cc12

>  <system>
Tyrosine-protein kinase Blk (Homo sapiens)

>  <measured result>
107

$$$$
>  <smiles data>
O=C1c2ccccc2-[n+]2ccc3c([nH]c4ccccc43)c21

>  <system>
Tyrosine-protein kinase Blk (Homo sapiens)

>  <measured result>
95

$$$$
>  <smiles data>
Ic1cccc(CSc2nnc(-c3ccncc3)o2)c1

>  <system>
Tyrosine-protein kinase Blk (Homo sapiens)

>  <measured result>
87

$$$$
>  <smiles data>
c1ccc(-c2n[nH]c3c2oc2ccccc23)cc1

>  <system>
Tyrosine-protein kinase Blk (Homo sapiens)

>  <measured result>
98

$$$$

Query :: Which residual activity value is on record for COc1ccc(C(=O)Nc2sc3c(c2C(N)=O)CCCC3)cc1OC ?
Result :: 109
